Tested on: SK-MEL-5 melanoma
Test: NCI tumour cell line growth inhibition, 48 h
readout: log10 TGI (log10 of the value in µM)
Field: value | Transform: log10 | Quantity: TGI | Unit: µM

The examples below pair each entry with its known result.
COc1ccc(C/C(C)=C(/c2ccc(OCCN3CCCCC3)cc2)c2ccc(OC(=O)NCc3ccccc3)cc2)cc1 : -0.11
NCCCN(CCCN(C(=O)Nc1ccccc1)c1ccccc1)C(=O)Nc1ccccc1 : 1.61
Cc1c(Cl)cccc1C(=O)Nc1nc2c(s1)CN(C(=O)c1ccc(C(F)(F)F)cc1)CC2 : 0.78

Item COc1ccc2c(c1)NC1=C(C(=O)OC1)C2c1cc(OC)c2c(c1)OCO2 (stereo not given) has what recorded log10 TGI?
-1.28

Try this compound too: COc1c(O)c(C=O)c2c(O)c(-c3c(C)cc4c(C(C)C)c(OC)c(O)c(C=O)c4c3O)c(C)cc2c1C(C)C
1.36

Moving on to the next compound: O=C(N/N=C/C=C/c1ccc([N+](=O)[O-])o1)c1cc2ccccc2cc1O
0.17
